system: OVCAR-8 ovarian; experiment: NCI-60 one-dose screen, 48 h; details: 10 µM
This is part of a sample that, as a whole, favours compounds with a hit. Of some 83,000 tested, about 20% had one in any assay. Calls of active or inactive are those of the source. How the source made its calls: active means growth percent below 10; inactive means the rest.
Result category, one only: Y for active, N for inactive

N#Cc1c(NC(=O)c2ccc(C(O)(C(F)(F)F)C(F)(F)F)cc2)sc2c1CCC(=O)C2: Y
O=C(N=Nc1c(O)[nH]c2ccc(Br)cc12)c1ccc2nc(-c3ccccc3)[nH]c2c1: Y
Clc1ccc(/C=N/Nc2ncnc3sc4c(c23)CCN(Cc2ccccc2)C4)cc1: Y
O=c1oc2ccccc2cc1-c1csc(N=Nc2c(O)[nH]c3ccc(Br)cc23)n1: N

Next:
Hi, do you know how Cc1ccc(C(=O)NCCCNc2nc(Nc3ccc(N4CCN(C)CC4)cc3)nc3ccsc23)cc1 came out in this test?
N

Where these numbers come from: PubChem BioAssay (NCI)
